- assay system: human platelet rich plasma (PRP) platelets (Homo sapiens, UniProt P05106+P08514)
- Sequence (P08514 32-1039): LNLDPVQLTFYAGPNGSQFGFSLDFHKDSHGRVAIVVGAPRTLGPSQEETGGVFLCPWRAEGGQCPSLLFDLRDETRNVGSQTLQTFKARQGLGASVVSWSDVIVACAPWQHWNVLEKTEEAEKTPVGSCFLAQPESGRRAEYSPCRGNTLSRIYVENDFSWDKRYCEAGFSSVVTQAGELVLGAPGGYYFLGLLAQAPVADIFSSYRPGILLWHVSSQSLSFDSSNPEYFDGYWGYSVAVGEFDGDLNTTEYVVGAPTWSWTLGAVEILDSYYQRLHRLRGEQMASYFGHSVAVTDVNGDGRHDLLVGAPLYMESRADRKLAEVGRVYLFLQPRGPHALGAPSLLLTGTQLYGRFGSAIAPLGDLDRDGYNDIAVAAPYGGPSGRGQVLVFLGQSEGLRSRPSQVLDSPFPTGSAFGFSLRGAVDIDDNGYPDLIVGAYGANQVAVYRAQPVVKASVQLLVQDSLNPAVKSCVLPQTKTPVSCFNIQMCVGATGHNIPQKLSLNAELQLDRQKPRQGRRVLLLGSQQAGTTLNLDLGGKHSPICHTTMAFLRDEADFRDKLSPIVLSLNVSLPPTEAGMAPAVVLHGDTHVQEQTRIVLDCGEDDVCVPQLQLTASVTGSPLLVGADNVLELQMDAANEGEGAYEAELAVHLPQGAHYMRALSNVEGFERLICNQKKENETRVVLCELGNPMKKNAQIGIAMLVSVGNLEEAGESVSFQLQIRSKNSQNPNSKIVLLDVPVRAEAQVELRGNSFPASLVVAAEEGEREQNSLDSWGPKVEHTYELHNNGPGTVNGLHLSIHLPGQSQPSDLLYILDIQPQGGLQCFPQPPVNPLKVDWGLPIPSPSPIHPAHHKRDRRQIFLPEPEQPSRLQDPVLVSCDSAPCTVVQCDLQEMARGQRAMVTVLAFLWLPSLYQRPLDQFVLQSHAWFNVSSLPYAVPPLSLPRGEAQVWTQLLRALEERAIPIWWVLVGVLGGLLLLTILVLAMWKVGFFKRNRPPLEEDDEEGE
- Sequence (P05106 27-788): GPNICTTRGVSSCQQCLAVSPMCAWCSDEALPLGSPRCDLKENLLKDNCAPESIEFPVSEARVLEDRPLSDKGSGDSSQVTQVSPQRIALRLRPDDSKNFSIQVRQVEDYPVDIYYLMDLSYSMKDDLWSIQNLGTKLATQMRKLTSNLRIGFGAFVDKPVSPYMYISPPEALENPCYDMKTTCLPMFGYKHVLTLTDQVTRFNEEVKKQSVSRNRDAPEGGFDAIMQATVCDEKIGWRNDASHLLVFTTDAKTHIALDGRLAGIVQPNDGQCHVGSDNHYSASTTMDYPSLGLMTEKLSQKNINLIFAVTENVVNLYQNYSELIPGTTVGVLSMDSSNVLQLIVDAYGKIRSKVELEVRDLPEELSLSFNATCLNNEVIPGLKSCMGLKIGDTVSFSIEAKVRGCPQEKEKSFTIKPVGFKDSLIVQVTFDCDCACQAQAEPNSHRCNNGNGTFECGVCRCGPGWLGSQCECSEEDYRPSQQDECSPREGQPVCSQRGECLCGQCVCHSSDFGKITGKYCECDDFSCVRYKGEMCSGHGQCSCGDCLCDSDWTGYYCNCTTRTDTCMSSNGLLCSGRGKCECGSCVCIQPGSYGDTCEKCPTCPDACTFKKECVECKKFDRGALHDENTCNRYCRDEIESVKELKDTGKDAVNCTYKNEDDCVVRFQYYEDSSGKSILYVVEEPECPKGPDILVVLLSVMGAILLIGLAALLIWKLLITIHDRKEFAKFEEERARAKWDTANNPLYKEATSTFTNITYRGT
- assay explanation: platelet aggregation inhibition in human platelet rich plasma (ADP induced)
- Assay type: cell-based
- stated conditions: ADP 8 uM
Positions of bridges follow the written chain, without caps; N, C: chain ends. Non-standard residues stand in square brackets, D forms with d. Residues, ends and D or L forms follow the SMILES beside them.
metric name: log10(IC50) (log10 of the value in µM)
All values: log10 IC50 [µM].

input: Name the reported log10(IC50) value associated with the compound N=C(N)NCCC[C@@H]1NC(=O)[C@H]2CCCN2C(=O)CSC[C@@H](C(=O)O)NC(=O)[C@H](CC(=O)O)NC(=O)CNC1=O [Ex. 13] ({CH2CO}-[dP]RGDC-OH; thioether N-5)
output: 0.30

input: Name the reported log10(IC50) value associated with the compound C[C@H]1NC(=O)CSC[C@@H](C(=O)O)NC(=O)[C@H](CC(=O)O)NC(=O)CNC(=O)[C@H](CCCNC(=N)N)NC1=O [Ex. 9] ({CH2CO}-[dA]RGDC-OH; thioether N-5)
output: 0.48

input: Name the reported log10(IC50) value associated with the compound N=C(N)NCCC[C@@H]1NC(=O)CNC(=O)C(c2ccccc2)SC[C@@H](C(=O)O)NC(=O)[C@H](CC(=O)O)NC(=O)CNC1=O (stereo partly drawn) [Ex. 18]
output: 0.48

input: Name the reported log10(IC50) value associated with the compound N=C(N)NCCC[C@@H]1NC(=O)CNC(=O)CSC[C@@H](C(=O)O)NC(=O)[C@H](CC(=O)O)NC(=O)CNC1=O [Ex. 2, cyclo-S-acetyl-Gly-Arg-Gly-Asp-Cys-OH] ({CH2CO}-GRGDC-OH; thioether N-5)
output: 0.90

input: Name the reported log10(IC50) value associated with the compound C[C@H](O)[C@H]1NC(=O)CSC[C@@H](C(=O)O)NC(=O)[C@H](CC(=O)O)NC(=O)CNC(=O)[C@H](CCCN=C(N)N)NC1=O [Ex. 7] ({CH2CO}-[dT]RGDC-OH; thioether N-5)
output: -0.10

input: Name the reported log10(IC50) value associated with the compound N=C(N)NCCC[C@@H]1NC(=O)CNC(=O)CSC[C@@H](C(=O)O)NC(=O)[C@H](CC(=O)O)NC(=O)CNC1=O [cyclo-S-acetyl-Gly-Arg-Gly-Asp-Cys-OH] ({CH2CO}-GRGDC-OH; thioether N-5)
output: 0.93
